Provenance of the data: patent US8471005B2

STUDY_TARGET: JAK2 (Homo sapiens, UniProt O60674)
Construct: host or cells: baculovirus expression system
Sequence (O60674 whole entry): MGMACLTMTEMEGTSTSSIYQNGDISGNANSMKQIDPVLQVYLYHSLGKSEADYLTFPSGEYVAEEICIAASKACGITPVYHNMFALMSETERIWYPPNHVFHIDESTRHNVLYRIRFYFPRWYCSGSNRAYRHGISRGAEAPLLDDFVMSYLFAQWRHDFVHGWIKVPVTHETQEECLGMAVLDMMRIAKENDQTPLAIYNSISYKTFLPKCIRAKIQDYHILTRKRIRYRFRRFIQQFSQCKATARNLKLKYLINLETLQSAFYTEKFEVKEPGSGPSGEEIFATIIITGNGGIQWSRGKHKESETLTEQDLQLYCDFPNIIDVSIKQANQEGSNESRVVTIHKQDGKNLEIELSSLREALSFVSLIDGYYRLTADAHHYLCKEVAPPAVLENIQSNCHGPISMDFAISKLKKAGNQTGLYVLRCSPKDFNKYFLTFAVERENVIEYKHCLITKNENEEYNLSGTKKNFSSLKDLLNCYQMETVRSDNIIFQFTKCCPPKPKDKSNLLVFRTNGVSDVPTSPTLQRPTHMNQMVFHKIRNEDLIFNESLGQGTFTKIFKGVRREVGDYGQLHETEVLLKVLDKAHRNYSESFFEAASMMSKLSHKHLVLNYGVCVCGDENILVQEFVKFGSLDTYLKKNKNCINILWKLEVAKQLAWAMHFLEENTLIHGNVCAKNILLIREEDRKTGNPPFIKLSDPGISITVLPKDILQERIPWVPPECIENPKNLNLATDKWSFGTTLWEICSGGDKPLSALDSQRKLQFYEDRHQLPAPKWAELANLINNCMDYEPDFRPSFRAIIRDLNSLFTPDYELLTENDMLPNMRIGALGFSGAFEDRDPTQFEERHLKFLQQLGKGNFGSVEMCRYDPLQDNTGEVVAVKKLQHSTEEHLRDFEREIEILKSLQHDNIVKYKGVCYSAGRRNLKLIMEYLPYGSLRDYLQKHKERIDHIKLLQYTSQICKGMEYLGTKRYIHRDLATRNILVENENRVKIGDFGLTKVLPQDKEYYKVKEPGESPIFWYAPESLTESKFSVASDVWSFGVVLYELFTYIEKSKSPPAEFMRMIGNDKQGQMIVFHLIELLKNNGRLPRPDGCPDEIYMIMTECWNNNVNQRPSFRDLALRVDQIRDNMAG
TEST: Recombinant Human JAK2 Kinase Assay (TRF)
Type: biochemical
STUDY_CONDITIONS: JAK2 kinase inhibition, 0.2 μM ATP; read-out: JAK2 Potency
ATTRIBUTE_MEASURED: IC50

Looking for the measured IC50 of COc1cc([C@@]2(O)CCN(CC(N)=O)C[C@@H]2O)ccc1Nc1ncc2ccc(-c3ccccc3OC)n2n1 (racemic) [Example 849] , can you help?
< 0.1 µM

Looking for the measured IC50 of COc1ccc(-c2ccc3cnc(Nc4ccc(C5CN(CC(N)=O)C5)cc4)nn23)cn1 [Example 584] , can you help?
< 0.1 µM

Looking for the measured IC50 of CC(C)(C)NS(=O)(=O)c1cccc(-c2ccc3cnc(Nc4ccc5cn(CCN6CCOCC6)nc5c4)nn23)c1 [Example 1344] , can you help?
< 0.1 µM

Looking for the measured IC50 of CN1CCC(c2ccc(Nc3ncc4ccc(-c5cccc(S(C)(=O)=O)c5)n4n3)cc2)CC1 [Example 1120] , can you help?
< 0.1 µM

Looking for the measured IC50 of COc1cc(C2CCN(CC(N)=O)CC2)ccc1Nc1ncc2ccc(-c3cccc4c3OCC4)n2n1 [Example 703] , can you help?
0.1 to 1 µM

Looking for the measured IC50 of COc1cc(C2(NC(=O)C(F)(F)F)CCC2)ccc1Nc1ncc2ccc(-c3ccccc3N(C)S(C)(=O)=O)n2n1 [Example 1254] , can you help?
1 to 10 µM

Looking for the measured IC50 of COc1c(Nc2ncc3ccc(-c4ccccc4N(C)S(C)(=O)=O)n3n2)cccc1C(=O)N1CCN(C)CC1 [Example 1230] , can you help?
> 10 µM

Looking for the measured IC50 of COc1cc([C@@H]2CCN(CCO)C[C@@H]2O)ccc1Nc1ncc2ccc(-c3ccccc3OC)n2n1 (racemic) [Example 848] , can you help?
< 0.1 µM

====

Known IC50 of a selection of compounds
STUDY_TARGET: ALK (Homo sapiens)
Construct: host or cells: baculovirus expression system
Sequence (Q9UM73 19-1620): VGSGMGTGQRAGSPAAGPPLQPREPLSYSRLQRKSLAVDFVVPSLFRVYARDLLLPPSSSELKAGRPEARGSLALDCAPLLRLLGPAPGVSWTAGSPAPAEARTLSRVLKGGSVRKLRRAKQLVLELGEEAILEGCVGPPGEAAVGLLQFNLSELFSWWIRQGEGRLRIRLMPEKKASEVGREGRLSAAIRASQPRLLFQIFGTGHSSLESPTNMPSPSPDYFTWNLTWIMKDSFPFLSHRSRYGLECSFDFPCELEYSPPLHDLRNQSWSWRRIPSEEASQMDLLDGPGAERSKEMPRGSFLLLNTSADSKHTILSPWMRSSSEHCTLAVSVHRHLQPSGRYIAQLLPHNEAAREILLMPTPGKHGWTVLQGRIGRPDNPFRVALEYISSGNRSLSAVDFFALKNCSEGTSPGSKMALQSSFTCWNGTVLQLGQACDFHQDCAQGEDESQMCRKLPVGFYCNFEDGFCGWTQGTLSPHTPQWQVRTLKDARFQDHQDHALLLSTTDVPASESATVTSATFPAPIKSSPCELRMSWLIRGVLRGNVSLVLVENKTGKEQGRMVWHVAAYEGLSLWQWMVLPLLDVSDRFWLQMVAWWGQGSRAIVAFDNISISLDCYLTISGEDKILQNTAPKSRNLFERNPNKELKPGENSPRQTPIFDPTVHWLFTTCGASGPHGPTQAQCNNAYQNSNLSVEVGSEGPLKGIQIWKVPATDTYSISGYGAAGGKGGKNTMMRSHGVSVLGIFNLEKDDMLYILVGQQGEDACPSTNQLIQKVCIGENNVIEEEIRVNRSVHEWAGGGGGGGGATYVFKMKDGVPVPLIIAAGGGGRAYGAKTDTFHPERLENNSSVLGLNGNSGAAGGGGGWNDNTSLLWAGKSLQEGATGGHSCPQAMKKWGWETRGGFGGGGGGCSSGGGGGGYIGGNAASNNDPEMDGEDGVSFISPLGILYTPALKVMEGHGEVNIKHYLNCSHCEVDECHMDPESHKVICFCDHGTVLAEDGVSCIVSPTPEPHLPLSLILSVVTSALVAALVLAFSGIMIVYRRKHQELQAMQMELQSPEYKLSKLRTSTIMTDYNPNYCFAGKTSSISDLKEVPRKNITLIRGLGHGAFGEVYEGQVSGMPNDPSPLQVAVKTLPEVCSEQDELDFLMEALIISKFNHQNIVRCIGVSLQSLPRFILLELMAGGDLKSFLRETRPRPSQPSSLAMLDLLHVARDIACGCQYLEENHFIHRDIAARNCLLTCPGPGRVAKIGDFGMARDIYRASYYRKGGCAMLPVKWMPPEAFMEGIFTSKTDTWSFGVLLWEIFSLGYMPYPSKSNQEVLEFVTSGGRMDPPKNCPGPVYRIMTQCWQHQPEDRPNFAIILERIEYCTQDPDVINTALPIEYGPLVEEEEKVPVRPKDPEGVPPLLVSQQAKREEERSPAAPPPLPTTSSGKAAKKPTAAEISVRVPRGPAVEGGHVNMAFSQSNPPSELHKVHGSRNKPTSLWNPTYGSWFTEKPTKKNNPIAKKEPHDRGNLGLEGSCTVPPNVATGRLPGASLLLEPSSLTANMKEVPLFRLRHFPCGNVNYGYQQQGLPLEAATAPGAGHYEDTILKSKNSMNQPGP
TEST: ALK Kinase Assay (ELISA/TRF, PLC-γ substrate)
Assay type: biochemical
STUDY_CONDITIONS: ALK kinase inhibition, 1 μM ATP; read-out: ALK Potency

Example results:
compound="COc1cc(C2CCN(CC(N)=O)CC2)ccc1Nc1ncc2ccc(-c3ccc(C)cc3N(C)S(C)(=O)=O)n2n1 [Example 1280]" result="< 100 nM"
compound="CN1CCN(c2ccc(Nc3ncc4ccc(-c5ccccc5CNCCS(C)(=O)=O)n4n3)cc2)CC1 [Example 1199]" result="1000 to 10000 nM"
compound="COc1cc(C2CCN(C(=O)C3CCN3)CC2)ccc1Nc1ncc2ccc(-c3ccccc3N(C)S(C)(=O)=O)n2n1 (racemic) [Example 863]" result="< 100 nM"

Looking for the measured IC50 of COc1ccc(C2CCN(C)CC2)cc1Nc1ncc2ccc(-c3ccccc3OC)n2n1 [Example 770] , can you help?
< 100 nM

Looking for the measured IC50 of COc1ccc(-c2ccc3cnc(Nc4ccc5ncn(C)c5c4)nn23)cn1 [Example 1307] , can you help?
1000 to 10000 nM

Looking for the measured IC50 of CS(=O)(=O)c1ccc(-c2ccc3cnc(Nc4ccc5nc(C(F)(F)F)[nH]c5c4)nn23)cc1 [Example 1302] , can you help?
> 10000 nM

Looking for the measured IC50 of Cn1ncc2ccc(Nc3ncc4ccc(-c5cccc(S(=O)(=O)CC6CC6)c5)n4n3)cc21 [Example 1321] , can you help?
1000 to 10000 nM
